Data provenance: patent US20170313754A1

Target: T1, human ferroportin (SLC40A1) fused in frame with GFP, stably expressed in HEK293 cells (human, UniProt Q9NP59 1-571)
T1 sequence (looked up): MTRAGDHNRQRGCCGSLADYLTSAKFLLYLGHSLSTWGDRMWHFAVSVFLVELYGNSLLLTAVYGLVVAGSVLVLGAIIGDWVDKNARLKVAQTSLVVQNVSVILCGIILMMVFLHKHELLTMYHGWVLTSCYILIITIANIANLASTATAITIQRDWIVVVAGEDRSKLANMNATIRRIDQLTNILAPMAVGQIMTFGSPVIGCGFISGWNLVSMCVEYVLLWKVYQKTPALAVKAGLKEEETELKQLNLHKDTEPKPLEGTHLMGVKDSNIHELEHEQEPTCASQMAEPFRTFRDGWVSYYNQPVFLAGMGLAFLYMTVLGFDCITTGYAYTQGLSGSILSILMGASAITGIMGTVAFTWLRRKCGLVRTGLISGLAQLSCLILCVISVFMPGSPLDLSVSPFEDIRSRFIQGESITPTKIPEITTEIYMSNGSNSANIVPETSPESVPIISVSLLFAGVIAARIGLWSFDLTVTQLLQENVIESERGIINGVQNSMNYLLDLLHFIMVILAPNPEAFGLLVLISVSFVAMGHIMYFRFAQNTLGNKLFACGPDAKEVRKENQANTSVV
Test: cell-based or functional assay
Numbered stars: 1 amine (or outer) side, 2 acyl side, 3 side chain; on linkers, the order of the positions; unused ones are H or OH. Bridge positions count the residues as written; N and C are the ends. Square brackets hold non-standard residues; d marks the D form. Ends that are not written are not given here. * marks the point of attachment. Ida = iminodiacetic acid, O=C(CN(CC(=O)[*:3])[*:1])[*:2]; Isovaleryl = CC(C)CC(=O)*; Hexanoyl = CCCCCC(=O)*
measured endpoint: Potency EC50 (nM), ferroportin-GFP internalization/degradation

Isovaleryl-DTHFPCIKFEPRSKEWVCK-OH (not fully specified (bridges); cysteine pairing not given here) [Isovaleric acid-DTHFPCIKFEPRSKEWVCK-OH]
46

P = DTHFPCIKFKPRSKGWVC (N-terminal isovaleric acid; K(butyric acid) at Lys 10; C-terminal amide) [Isovaleric acid-DTHFPCIKF-K(butyric acid)-PRSKGWVC-NH2]
Q = DTHFPCIKFKPRSKGWVC (N-terminal isovaleric acid; K(hexanoic acid) at Lys 10; C-terminal amide) [Isovaleric acid-DTHFPCIKF-K(hexanoic acid)-PRSKGWVC-NH2]
R = [Ida]THFPCIKFEPRSKGWVCK(Hexanoyl)-NH2 (disulfide 6-18 (inferred)) [[Ida]-THFPCIKFEPRSKGWVC-K(hexanoic acid)-NH2]
Sequence the entries by Potency EC50 (nM), ferroportin-GFP internalization/degradation, beginning with the highest number. # list labels per requested ordering R, P, Q
